Data provenance is paper PMC9585585.

# assayed_target: HsATC (Homo sapiens)
# Construct: ATCase domain of CAD; made in house; host or cells: E. coli BL21 star
# Sequence (P27708 1918-2225 limits assumed): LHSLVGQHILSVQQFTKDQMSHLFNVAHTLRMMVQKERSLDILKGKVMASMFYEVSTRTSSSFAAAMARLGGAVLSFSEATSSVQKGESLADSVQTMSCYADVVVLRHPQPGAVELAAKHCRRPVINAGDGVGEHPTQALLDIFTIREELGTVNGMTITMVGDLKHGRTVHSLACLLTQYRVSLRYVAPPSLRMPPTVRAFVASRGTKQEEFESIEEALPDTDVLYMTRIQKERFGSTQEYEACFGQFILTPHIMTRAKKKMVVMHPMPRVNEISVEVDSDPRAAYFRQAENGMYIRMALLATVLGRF
# assay_method_text: HsATC activity assay
# Format: biochemical
# applied_conditions: in vitro activity assay, 10 mM L-aspartate, 5 mM carbamoyl phosphate; read-out: HsATC IC50
pIC50: −log10 of the molar value.
property_measured: pIC50

Examples with their reported pIC50 follow.
| compound | pIC50 |
| --- | --- |
| CC(C)(C)OC(=O)Nc1sc(-c2cccc(N3CCOCC3)c2)cc1C(=O)NCCc1ccc(O)cc1 | 6.62 |
| CC(C)c1cc(C(=O)NCCc2ccc(O)cc2)c(NC(=O)OC(C)(C)C)s1 | 5.95 |
| CC(C)(C)OC(=O)Nc1sc(-c2ccccc2)cc1C(=O)NCCCc1ccccc1 | 6.26 |
| CC(C)(C)OC(=O)Nc1sc(-c2ccccc2)cc1C(=O)NCCc1ccc(S(N)(=O)=O)cc1 | 6.54 |
| CC(C)(C)OC(=O)Nc1sc(-c2ccccc2)cc1C(=O)NCC(O)c1ccccc1 (stereo not drawn) | 6.06 |

(P) CC(C)(C)OC(=O)Nc1sc(-c2ccccc2)cc1C(=O)NCc1ccc(O)cc1
(Q) CC(C)(C)OC(=O)Nc1sc(-c2ccc3c(c2)OCO3)cc1C(=O)NCCc1ccc(O)cc1
(R) CC(C)CCNc1sc(-c2ccccc2)cc1C(=O)NCCc1ccccc1
(S) CC(C)(C)OC(=O)Nc1sc(-c2ccccc2)cc1C(=O)NCC(c1ccccc1)c1ccccc1
Task: Ordering criterion: pIC50; begin with the maximum. Use the labels to give the ranking in the order requested.
Output: Q, P, R, S
(Q: 7.54, P: 6.40, R: 6.18, S: 4.81)
